MEASURED ON: hAGT C145S (O6-alkylguanine-DNA alkyltransferase, inactive mutant) (human, UniProt P16455 1-207, C145S)
Sequence (P16455 whole entry C145S): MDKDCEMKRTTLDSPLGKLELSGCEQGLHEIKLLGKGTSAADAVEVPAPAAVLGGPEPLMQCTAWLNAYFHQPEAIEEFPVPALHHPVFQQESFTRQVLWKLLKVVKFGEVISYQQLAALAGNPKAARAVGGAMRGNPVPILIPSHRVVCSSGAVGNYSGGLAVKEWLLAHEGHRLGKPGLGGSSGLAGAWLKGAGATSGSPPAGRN
ASSAY NOTES: EMSA
pKd: −log10 of the molar value.
QUANTITY MEASURED: pKd

binder="Control (non-cross-linked duplex) (dsDNA) DNA 1: CGATGTCATCG DNA 2: CGATGACATCG" quantity_measured=pKd experimental_value=5.08
